test system: SNB-75 CNS; assay: NCI-60 one-dose screen, 48 h (100 = growth as untreated, 0 = no growth, -100 = all killed); conditions: 10 µM
This is part of a sample that, as a whole, favours compounds with a hit. Of some 83,000 tested, about 20% had one in any assay.
measuredMetric: growth (%)
Give a bare numeral; the unit % is implied.

Q. Data request, read-out growth, for `Cc1cc(CSc2ccccc2C(=O)N2CC=C(c3ccccc3)CC2)on1`
A. 90.3

Q. Data request, read-out growth, for `S=C1N(c2ccccc2)CN(C2CCCCC2)CN1c1ccccc1`
A. 90.1

Q. Data request, read-out growth, for `Cc1ccc2nc(Cl)c(-c3nc4ccccc4o3)cc2c1`
A. 90.2

Q. Data request, read-out growth, for `O=C1/C(=C/c2cccc(F)c2)Cc2ccccc21`
A. 89.4

Q. Data request, read-out growth, for `COc1ccc(C(=O)CC(CC(=O)c2ccc(OC)cc2)c2c(C)nn(-c3ccccc3)c2Cl)cc1`
A. 91.3

Q. Data request, read-out growth, for `O[C@@H]1CO[C@H]2[C@@H]1OC[C@@H]2O`
A. 91.1

Q. Data request, read-out growth, for NC(CSC(c1ccccc1)(c1ccccc1)c1cccc2ccccc12)C(=O)O (stereo not drawn)
A. 87.6

Q. Data request, read-out growth, for `CCOC(=O)CN(c1sc(C)c(C)c1C(=O)OCC)S(=O)(=O)c1ccc(C)cc1`
A. 91.7

###

Assign growth to each entry below.
tested on: NCI-H522 lung; assay: NCI-60 one-dose screen, 48 h (100 = growth as untreated, 0 = no growth, -100 = all killed); conditions: 10 µM
The panel holds about 83,000 compounds, 20% with a hit somewhere; the sample as a whole holds those more often.
Give a bare numeral; the unit % is implied.

Q. Data request, read-out growth, for `O=C(CCl)Nc1ccc(Cc2ccc(NC(=O)CCl)cc2)cc1`
A. -81

Q. Data request, read-out growth, for `O=C1c2ccccc2-c2c1c1cccnc1c(=O)n2C[C@H](O)CO`
A. 44.4

Q. Data request, read-out growth, for `COc1cc2cc(Oc3ccc(NC(=O)c4cc(C(F)(F)F)cc(C(F)(F)F)c4)cc3)c(C)nc2cc1OC`
A. 34

Q. Data request, read-out growth, for `CCOC(=O)c1sc2ncnc(Nc3ccc4c(cnn4C(=O)Nc4ccccc4)c3)c2c1C`
A. 64.5

Q. Data request, read-out growth, for `O=C(O)c1cn(C2CC2)c2cc(N3CCN(C(=O)c4cc(-c5ccc(Cl)cc5)nc5ccccc45)CC3)c(F)cc2c1=O`
A. 86.4

Q. Data request, read-out growth, for `COc1cc(-c2csc(NC(=O)Nc3ccc(Cl)c(C(F)(F)F)c3)n2)cc(OC)c1OC`
A. -25.4

Q. Data request, read-out growth, for `Nc1cc(-c2ccc(Cl)cc2)nn1-c1nc2ccccc2nc1Cc1ccccc1`
A. 85.7

Q. Data request, read-out growth, for NC1=NC(c2ccccc2)C2=C(N1)/C(=C/c1ccccc1)CCC2 (stereo not given)
A. 48.4

Q. Data request, read-out growth, for `N#Cc1c(-c2ccc(Cl)cc2)n(O)c2ccccc12`
A. 10.7

Q. Data request, read-out growth, for CCN1C(=O)CC(SC2CC(=O)N(CC)C2=O)C1=O (stereo not given)
A. 96.1

Q. Data request, read-out growth, for `CC(=O)/C(=C/c1ccc(Br)cc1)C(=O)c1ccccc1`
A. 85.2

Q. Data request, read-out growth, for `COc1ccc(-c2nn(-c3cccc(Cl)c3)cc2-c2c(C#N)c(N)n(N)c(=O)c2C#N)cc1`
A. -46

Q. Data request, read-out growth, for COC1OC(COS(=O)OC)C(O)C(O)C1OS(=O)OC (stereo not given)
A. 98.5

Q. Data request, read-out growth, for `COc1cc(/C=C/c2cc(/C=C/c3ccc(O)c(OC)c3)nc(N)n2)ccc1O`
A. -41.3

Q. Data request, read-out growth, for `Cc1cccc(N=Cc2ccccc2O)c1C`
A. 114

Q. Data request, read-out growth, for CCOC(=O)C1=CSC2=NC3=C(CCC/C3=C\c3ccc(Cl)cc3)C(c3ccc(Cl)cc3)N12 (stereo not given)
A. 93.5

Q. Data request, read-out growth, for `COc1ccccc1-n1c(-c2csc(NC(C)=O)n2)n[nH]c1=S`
A. 82.5

Q. Data request, read-out growth, for `CCOC(=O)c1sc2ncnc(Nc3ccc(NC(=O)Nc4ccc(Cl)cc4)cc3)c2c1C`
A. 54.1

Q. Data request, read-out growth, for `CC1=NN(C(=O)c2nn(-c3ccc(Cl)cc3)cc2O)C(=O)C1`
A. 42.3

Q. Data request, read-out growth, for `CC(=O)N[C@H](C(=O)N[C@@H](CCCNC(=N)N)C(=O)N[C@@H](CCCCN)C(=O)N[C@@H](CCCNC(=N)N)C(=O)N[C@]1(C)CCCCCC/C=C\CCC[C@@](C)(C(=O)N[C@@H](CCCNC(=N)N)C(=O)N[C@@H](CCC(=O)O)C(=O)N[C@@H](CC(C)C)C(=O)N[C@H](C(=O)N[C@@H](CCC(=O)O)C(N)=O)C(C)C)NC(=O)[C@H](CCC(N)=O)NC(=O)[C@H](CC(C)C)NC(=O)[C@H](CC(C)C)NC(=O)[C@H](CCCNC(=N)N)NC(=O)[C@H](CCCNC(=N)N)NC(=O)[C@H](CC(C)C)NC1=O)C(C)C`
A. 28.7
